So I've got a bunch of variants here, and I need their self-cleavage values.
B1: Hairpin Ribozyme (parent)
chain: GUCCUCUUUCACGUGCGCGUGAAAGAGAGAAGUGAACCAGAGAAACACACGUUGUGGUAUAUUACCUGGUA

- Variants of: B1
- ASSAY_REMARKS: self-cleavage, relative activity (ratio to wild type); higher = more cleavage; co-transcriptional
Give the figure by itself; no unit, no explanation.

q: Report self-cleavage for U5C C16A please.
a: 0.693

q: Report self-cleavage for A47G G68A please.
a: 0.181

q: Report self-cleavage for C50A U62A please.
a: 0.0965

q: Report self-cleavage for G32U U55A please.
a: 0.0859

q: Report self-cleavage for G19A C65G please.
a: 0.324

q: Report self-cleavage for G27C G34C please.
a: 0.971

q: Report self-cleavage for G21U C37U please.
a: 0.373

q: Report self-cleavage for G42C U53A please.
a: 0.332

q: Report self-cleavage for G13A A41C please.
a: 1.04

q: Report self-cleavage for A22C U63C please.
a: 0.203

q: Report self-cleavage for U55A A71C please.
a: 0.697

q: Report self-cleavage for G32U U33C please.
a: 0.222

q: Report self-cleavage for A31G C48G please.
a: 0.1

q: Report self-cleavage for C12U U53G please.
a: 0.677

q: Report self-cleavage for A49C G69A please.
a: 0.139

q: Report self-cleavage for C6U G40U please.
a: 0.166

q: Report self-cleavage for A23C please.
a: 0.822

q: Report self-cleavage for C46U C66A please.
a: 0.113

q: Report self-cleavage for G17U U62A please.
a: 0.198

q: Report self-cleavage for G19C G32A please.
a: 0.147

q: Report self-cleavage for A44G G69A please.
a: 0.0936

q: Report self-cleavage for C37G G54U please.
a: 0.255

q: Report self-cleavage for U7G U67G please.
a: 0.283

q: Report self-cleavage for G40C C46A please.
a: 0.155

q: Report self-cleavage for U7A G57A please.
a: 0.128

q: Report self-cleavage for A44U G56U please.
a: 0.231

q: Report self-cleavage for A22G U67C please.
a: 0.231

q: Report self-cleavage for A23C A59G please.
a: 0.143

q: Report self-cleavage for U8G C10G please.
a: 0.676

q: Report self-cleavage for A11U C18U please.
a: 1.12

q: Report self-cleavage for G19C U58C please.
a: 0.815

q: Report self-cleavage for A30U G40A please.
a: 0.0894

q: Report self-cleavage for C6A A22U please.
a: 0.352

q: Report self-cleavage for G29A G34A please.
a: 0.201

q: Report self-cleavage for C12G G56C please.
a: 0.154

q: Report self-cleavage for G21C A22U please.
a: 0.715

q: Report self-cleavage for A35G U70A please.
a: 0.927

q: Report self-cleavage for G40A A43G please.
a: 0.18

q: Report self-cleavage for C18A C65U please.
a: 0.254

q: Report self-cleavage for G15A A61G please.
a: 0.18

q: Report self-cleavage for C6A G25C please.
a: 0.64

q: Report self-cleavage for U9A G54U please.
a: 0.39

q: Report self-cleavage for G54U U63G please.
a: 0.159

q: Report self-cleavage for U33A G57U please.
a: 0.13

q: Report self-cleavage for G27C U67G please.
a: 0.0952

q: Report self-cleavage for A23U A71C please.
a: 1.28

q: Report self-cleavage for C6U A39C please.
a: 0.504

q: Report self-cleavage for A43C U62A please.
a: 0.12

q: Report self-cleavage for C65G G69A please.
a: 0.138

q: Report self-cleavage for G51A U70C please.
a: 1.1

q: Report self-cleavage for G51C U60G please.
a: 0.62

q: Report self-cleavage for G51A C65A please.
a: 1.17

q: Report self-cleavage for U33A C38A please.
a: 0.13

q: Report self-cleavage for G1U A41C please.
a: 0.0514

q: Report self-cleavage for A47G G56C please.
a: 0.132

q: Report self-cleavage for G19A G27U please.
a: 0.237

q: Report self-cleavage for G25C U55G please.
a: 0.13

q: Report self-cleavage for U2C G15A please.
a: 0.126

q: Report self-cleavage for C16A A39G please.
a: 0.243

q: Report self-cleavage for G17C U20G please.
a: 0.904

q: Report self-cleavage for A24C A47G please.
a: 0.113

q: Report self-cleavage for C16G G34C please.
a: 1.22

q: Report self-cleavage for A24U G32A please.
a: 0.15

q: Report self-cleavage for G32U G56A please.
a: 0.117

q: Report self-cleavage for A11U C50U please.
a: 0.36

q: Report self-cleavage for U2C U5A please.
a: 0.118

q: Report self-cleavage for G1A U60A please.
a: 0.188

q: Report self-cleavage for G25A G69A please.
a: 0.238

q: Report self-cleavage for A39C A49C please.
a: 0.151

q: Report self-cleavage for G29U G42U please.
a: 0.107

q: Report self-cleavage for C3U C4U please.
a: 0.39

q: Report self-cleavage for G15U A35U please.
a: 0.842

q: Report self-cleavage for C18G G34A please.
a: 1.23

q: Report self-cleavage for G42U U53C please.
a: 0.233

q: Report self-cleavage for C10A A49U please.
a: 0.172

q: Report self-cleavage for C37G U63C please.
a: 0.154

q: Report self-cleavage for C3U C37G please.
a: 0.262

q: Report self-cleavage for G42U A59G please.
a: 0.172

q: Report self-cleavage for U7G A59U please.
a: 0.116

q: Report self-cleavage for U20A A35G please.
a: 0.815

q: Report self-cleavage for C6G C46G please.
a: 0.124

q: Report self-cleavage for A22G U55A please.
a: 0.318

q: Report self-cleavage for G19C A28G please.
a: 1.15

q: Report self-cleavage for A28U U33A please.
a: 0.152

q: Report self-cleavage for A43U U52G please.
a: 0.139

q: Report self-cleavage for C16U A35G please.
a: 0.937

q: Report self-cleavage for A31C A35U please.
a: 0.181

q: Report self-cleavage for G32U G42A please.
a: 0.153

q: Report self-cleavage for G15C A26G please.
a: 1.03

q: Report self-cleavage for G27U G54C please.
a: 0.133

q: Report self-cleavage for C10G G25C please.
a: 0.358
